# Test system: Plasmodium falciparum
# Test description: Antiplasmodial activity against chloroquine-resistant blood-stage Plasmodium falciparum W2 after 48 hrs by flow cytometric analysis
# Assay type: functional, organism-based
# Measurement setup: W2, 48 h
pIC50: −log10 of the molar value.
Experimental readout: pIC50

Reference set, count: 3
chem_smiles=CC(C)C[C@@H](NC(=O)/C=C/c1cccc([N+](=O)[O-])c1)C(=O)N[C@H](CCc1ccccc1)C(=O)Nc1ccnc2cc(Cl)ccc12 experimental_readout=pIC50 result=5.68
chem_smiles=O=C(/C=C/c1ccc(F)cc1)Nc1ccnc2cc(Cl)ccc12 experimental_readout=pIC50 result="< 5.00"
chem_smiles=O=C(/C=C/c1ccccc1)Nc1ccnc2cc(Cl)ccc12 experimental_readout=pIC50 result="< 5.00"

Q) Which value of pIC50 has been reported for O=C(/C=C/c1ccc(Cl)cc1)Nc1ccnc2cc(Cl)ccc12 in the records?
A) < 5.00

Q) Which value of pIC50 has been reported for O=C(/C=C/c1ccccc1[N+](=O)[O-])Nc1ccnc2cc(Cl)ccc12 in the records?
A) < 5.00

###

Measured IC50 accompanies every entry in the list below.
# Tested on: Plasmodium falciparum
# Test description: Antiplasmodial activity against chloroquine-resistant blood-stage Plasmodium falciparum W2 after 48 hrs by flow cytometric analysis
# Type: functional, organism-based
# Measurement setup: W2, 48 h
Supply the numeric figure in µM, leaving out any unit text.

chem_smiles=CC(C)C[C@@H](NC(=O)/C=C/c1cccc(F)c1)C(=O)N[C@H](CCc1ccccc1)C(=O)Nc1ccnc2cc(Cl)ccc12 unit_tag=µM numeric_result=5.43
chem_smiles=CC(C)C[C@@H](NC(=O)/C=C/c1ccc([N+](=O)[O-])cc1)C(=O)N[C@H](CCc1ccccc1)C(=O)Nc1ccnc2cc(Cl)ccc12 unit_tag=µM numeric_result=1.23

Now for another entry.
Q) Which value of IC50 has been reported for CC(C)C[C@@H](NC(=O)/C=C/c1ccc(F)cc1)C(=O)N[C@H](CCc1ccccc1)C(=O)Nc1ccnc2cc(Cl)ccc12 in the records?
A) 4.67

###

# System: Plasmodium falciparum
# Test description: Antiplasmodial activity against chloroquine-resistant blood-stage Plasmodium falciparum W2 after 48 hrs by flow cytometric analysis
# Type: functional, organism-based
# Measurement setup: W2, 48 h
Measured pIC50 accompanies every entry in the list below.
Formally, pIC50 is defined as -log10 of the concentration c, with c in mol/L.

chem_smiles=CC(C)C[C@@H](NC(=O)/C=C/c1ccc(Cl)cc1)C(=O)N[C@H](CCc1ccccc1)C(=O)Nc1ccnc2cc(Cl)ccc12 numeric_result=5.54

Q) Which value of pIC50 has been reported for CC(C)C[C@H](NC(=O)/C=C/c1ccccc1)C(=O)N[C@@H](CCc1ccccc1)C(=O)Nc1ccnc2cc(Cl)ccc12 in the records?
A) 5.10

###

# Test system: Heme
# Test description: Inhibition of heme polymerization at 1 mM after 48 hrs by spectrophotometry relative to chloroquine
Experimental readout: inhibition

chem_smiles=CC(C)C[C@@H](NC(=O)/C=C/c1ccc(C(C)C)cc1)C(=O)N[C@H](CCc1ccccc1)C(=O)Nc1ccnc2cc(Cl)ccc12 experimental_readout=inhibition result="< 50%"

Now for another entry.
Q) Which value of inhibition has been reported for O=C(/C=C/c1ccc(Cl)cc1)Nc1ccnc2cc(Cl)ccc12 in the records?
A) < 50%

###

# System: Heme
# Test description: Inhibition of heme polymerization at 1 mM after 48 hrs by spectrophotometry relative to chloroquine
Experimental readout: inhibition

chem_smiles=CC(C)C[C@@H](NC(=O)/C=C/c1ccc(N)cc1)C(=O)N[C@H](CCc1ccccc1)C(=O)Nc1ccnc2cc(Cl)ccc12 experimental_readout=inhibition result="> 75%"

Q) Request - read-out inhibition | tested on Heme | compound O=C(/C=C/c1ccccc1)Nc1ccnc2cc(Cl)ccc12
A) < 50%

Q) Request - read-out inhibition | tested on Heme | compound O=C(/C=C/c1ccc(F)cc1)Nc1ccnc2cc(Cl)ccc12
A) < 50%

Q) Request - read-out inhibition | tested on Heme | compound O=C(/C=C/c1cccc(F)c1)Nc1ccnc2cc(Cl)ccc12
A) < 50%
